Data provenance is patent US8288419B2.

biological target: recombinant human ALX receptor (Homo sapiens); construct: expressed in transfected cells; host or cells: HEK293 (HEK293-hALXR-Gα16); assay: Intracellular calcium measurements (FLIPR), ALX receptor agonistic activity; type: cell-based; details: HEK293-hALXR-Gα16 cells, Fluo-4 calcium fluorescence, normalized to 10 nM WKYMVm
Sequence (P25090 whole entry): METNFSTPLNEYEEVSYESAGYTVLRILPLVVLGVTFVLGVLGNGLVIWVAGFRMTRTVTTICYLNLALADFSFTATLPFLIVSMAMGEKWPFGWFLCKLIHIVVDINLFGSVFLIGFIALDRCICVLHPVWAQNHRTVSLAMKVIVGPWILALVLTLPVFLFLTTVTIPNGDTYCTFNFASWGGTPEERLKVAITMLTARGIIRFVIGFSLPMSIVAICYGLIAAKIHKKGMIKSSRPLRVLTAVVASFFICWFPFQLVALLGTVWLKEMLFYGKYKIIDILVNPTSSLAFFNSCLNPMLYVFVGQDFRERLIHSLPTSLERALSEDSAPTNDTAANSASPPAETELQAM
Please provide measured EC50 for the entries that follow.
Just the number please, in nM, no unit attached.

## Task Report EC50 for CC(F)(F)CCCCn1ccc(NC(=O)OCc2ccccc2Cl)n1 please.
## Result 154

## Task Report EC50 for COc1cccc(/C=C/C(=O)Nc2cnn(Cc3ccc(C(C)=O)o3)c2)c1OC please.
## Result 210

## Task Report EC50 for CC(=O)c1ccc(Cn2cc(NC(=O)c3ncoc3-c3ccc(C)cc3)cn2)o1 please.
## Result 85

## Task Report EC50 for CC(=O)CCCCn1ccc(NC(=O)OCc2ccc(F)c(F)c2)n1 please.
## Result 363

## Task Report EC50 for CC(=O)CCCCn1cc(NC(=O)OCc2nc3ccccc3s2)cn1 please.
## Result 43

## Task Report EC50 for CC(=O)c1ccc(Cn2cc(NC(=O)c3ncsc3-c3cccc(Cl)c3)cn2)o1 please.
## Result 202

## Task Report EC50 for CC(=O)c1ccc(Cn2cc(NC(=O)c3nc(C(C)C)oc3-c3ccccc3)cn2)o1 please.
## Result 114

## Task Report EC50 for CC(=O)c1cc(Cn2cc(NC(=O)OCc3ccccc3Cl)cn2)ccn1 please.
## Result 58

## Task Report EC50 for CC(=O)c1csc(Cn2cc(NC(=O)/C=C/c3ccc(C(F)(F)F)cc3)cn2)n1 please.
## Result 79

## Task Report EC50 for CC(F)(F)c1csc(Cn2ccc(NC(=O)c3ncoc3-c3ccccc3)n2)n1 please.
## Result 1090

## Task Report EC50 for CC(=O)c1ccc(Cn2cc(NC(=O)c3ncoc3-c3ccno3)cn2)o1 please.
## Result 388

## Task Report EC50 for CC(=O)c1ccc(Cn2ccc(NC(=O)c3nc(C)oc3-c3cccc(OC(F)(F)F)c3)n2)s1 please.
## Result 237

## Task Report EC50 for CC(=O)c1ccc(Cn2ccc(NC(=O)c3ncoc3-c3cccc(C(=O)OC(C)(C)C)c3)n2)o1 please.
## Result 35

## Task Report EC50 for CC(=O)c1cc(Cn2cc(NC(=O)c3ncoc3-c3ccccc3)cn2)on1 please.
## Result 1470

## Task Report EC50 for CC(=O)c1ccc(Cn2ccc(NC(=O)OCc3cc(F)c(F)cc3F)n2)o1 please.
## Result 33
